refractive index reference
# measurement-notes: refractive index (Na D-line) (dimensionless); wn = mass fraction of the nth substance listed
# measurement-setup: 308.15 K; 101 kPa; Liquid; Standard Abbe refractometry; w1 = 0.1
No unit in the answer, only the number.

Solved cases (3 shown):
compound | reported-result
OCCNCCO [diethanolamine] + O | 1.34511
CC(O)CN(CC(C)O)CC(C)O (centres undefined) [triisopropanolamine] + O | 1.34656
CC(O)CNCC(C)O (centres undefined) [N-(2-hydroxypropyl)-2-hydroxy-1-propanamine] + O | 1.34623

Data request: Any idea what refractive index was measured for CC(O)CN (centres undefined) [1-amino-2-propanol] + O ?
Data returned: 1.34432

----------
viscosity reference
# measurement-notes: wn = mass fraction of the nth substance listed
# measurement-setup: 303.15 K; 101 kPa; Liquid; Concentric cylinders viscometry; w1 = 0.25
# unit: mPa·s | format: bare number

compound | reported-result
CC(O)CN (centres undefined) [1-amino-2-propanol] + O | 2.083
CC(O)CN(CC(C)O)CC(C)O (centres undefined) [triisopropanolamine] + O | 2.396
OCCNCCO [diethanolamine] + O | 2.05

Data request: Any idea what viscosity was measured for CC(O)CNCC(C)O (centres undefined) [N-(2-hydroxypropyl)-2-hydroxy-1-propanamine] + O ?
Data returned: 2.539

----------
# measurement-notes: refractive index (Na D-line) (dimensionless); wn = mass fraction of the nth substance listed
# measurement-setup: 333.15 K; 101 kPa; Liquid; Standard Abbe refractometry; w1 = 0.15
± gives the expanded uncertainty stated by the source.
measurement-name: refractive index

compound | refractive index
CC(O)CNCC(C)O (centres undefined) [N-(2-hydroxypropyl)-2-hydroxy-1-propanamine] + O | 1.34831 ± 0.00032
CC(O)CN (centres undefined) [1-amino-2-propanol] + O | 1.34581 ± 0.00032
OCCNCCO [diethanolamine] + O | 1.3485 ± 0.00031

Data request: Any idea what refractive index was measured for CC(O)CN(CC(C)O)CC(C)O (centres undefined) [triisopropanolamine] + O ?
Data returned: 1.34883 ± 0.00035

----------
# measurement-notes: refractive index (Na D-line) (dimensionless); wn = mass fraction of the nth substance listed
# measurement-setup: 338.15 K; 101 kPa; Liquid; Standard Abbe refractometry; w1 = 0.15
measurement-name: refractive index
No unit in the answer, only the number.

Data request: Any idea what refractive index was measured for OCCNCCO [diethanolamine] + O ?
Data returned: 1.34755

Data request: Any idea what refractive index was measured for CC(O)CN (centres undefined) [1-amino-2-propanol] + O ?
Data returned: 1.34462

Data request: Any idea what refractive index was measured for CC(O)CN(CC(C)O)CC(C)O (centres undefined) [triisopropanolamine] + O ?
Data returned: 1.34762

Data request: Any idea what refractive index was measured for CC(O)CNCC(C)O (centres undefined) [N-(2-hydroxypropyl)-2-hydroxy-1-propanamine] + O ?
Data returned: 1.34702

----------
# measurement-notes: wn = mass fraction of the nth substance listed
# measurement-setup: 318.15 K; 101 kPa; Liquid; Concentric cylinders viscometry; w1 = 0.1
± gives the expanded uncertainty stated by the source.
viscosity reference
Field: value (include unit after the number)

Solved cases (3 shown):
compound | viscosity
CC(O)CN(CC(C)O)CC(C)O (centres undefined) [triisopropanolamine] + O | 0.8658 ± 0.0072 mPa·s
CC(O)CN (centres undefined) [1-amino-2-propanol] + O | 0.8362 ± 0.0068 mPa·s
OCCNCCO [diethanolamine] + O | 0.8307 ± 0.0067 mPa·s

Next:
Data request: Any idea what viscosity was measured for CC(O)CNCC(C)O (centres undefined) [N-(2-hydroxypropyl)-2-hydroxy-1-propanamine] + O ?
Data returned: 0.8856 ± 0.0069 mPa·s

----------
# measurement-notes: wn = mass fraction of the nth substance listed
# measurement-setup: 313.15 K; 101 kPa; Liquid; Vibrating tube method; w1 = 0.1
± gives the expanded uncertainty stated by the source.
mass density reference

Solved cases (3 shown):
compound | mass density
CC(O)CN(CC(C)O)CC(C)O (centres undefined) [triisopropanolamine] + O | 998.785 ± 0.1 kg/m3
OCCNCCO [diethanolamine] + O | 1003.83 ± 0.043 kg/m3
CC(O)CNCC(C)O (centres undefined) [N-(2-hydroxypropyl)-2-hydroxy-1-propanamine] + O | 998.214 ± 0.05 kg/m3

Data request: Any idea what mass density was measured for CC(O)CN (centres undefined) [1-amino-2-propanol] + O ?
Data returned: 993.738 ± 0.05 kg/m3

----------
# measurement-notes: wn = mass fraction of the nth substance listed
# measurement-setup: 333.15 K; 101 kPa; Liquid; Concentric cylinders viscometry; w1 = 0.1
viscosity reference
# unit: mPa·s | format: bare number

compound | reported-result
CC(O)CN (centres undefined) [1-amino-2-propanol] + O | 0.647
CC(O)CN(CC(C)O)CC(C)O (centres undefined) [triisopropanolamine] + O | 0.6624
OCCNCCO [diethanolamine] + O | 0.643

Data request: Any idea what viscosity was measured for CC(O)CNCC(C)O (centres undefined) [N-(2-hydroxypropyl)-2-hydroxy-1-propanamine] + O ?
Data returned: 0.6793

----------
# measurement-notes: refractive index (Na D-line) (dimensionless); wn = mass fraction of the nth substance listed
# measurement-setup: 328.15 K; 101 kPa; Liquid; Standard Abbe refractometry; w1 = 0.2
measurement-name: refractive index
No unit in the answer, only the number.

Data request: Any idea what refractive index was measured for CC(O)CN (centres undefined) [1-amino-2-propanol] + O ?
Data returned: 1.3533

----------
refractive index reference
# measurement-notes: refractive index (Na D-line) (dimensionless); wn = mass fraction of the nth substance listed
# measurement-setup: 338.15 K; 101 kPa; Liquid; Standard Abbe refractometry; w1 = 0.2
No unit in the answer, only the number.

Solved cases (3 shown):
compound | reported-result
CC(O)CNCC(C)O (centres undefined) [N-(2-hydroxypropyl)-2-hydroxy-1-propanamine] + O | 1.35377
OCCNCCO [diethanolamine] + O | 1.3547
CC(O)CN(CC(C)O)CC(C)O (centres undefined) [triisopropanolamine] + O | 1.35461

Next:
Data request: Any idea what refractive index was measured for CC(O)CN (centres undefined) [1-amino-2-propanol] + O ?
Data returned: 1.35092

----------
refractive index reference
# measurement-notes: refractive index (Na D-line) (dimensionless); wn = mass fraction of the nth substance listed
# measurement-setup: 323.15 K; 101 kPa; Liquid; Standard Abbe refractometry; w1 = 0.2
No unit in the answer, only the number.

Data request: Any idea what refractive index was measured for CC(O)CN(CC(C)O)CC(C)O (centres undefined) [triisopropanolamine] + O ?
Data returned: 1.35818

Data request: Any idea what refractive index was measured for CC(O)CN (centres undefined) [1-amino-2-propanol] + O ?
Data returned: 1.35454

Data request: Any idea what refractive index was measured for OCCNCCO [diethanolamine] + O ?
Data returned: 1.35777

Data request: Any idea what refractive index was measured for CC(O)CNCC(C)O (centres undefined) [N-(2-hydroxypropyl)-2-hydroxy-1-propanamine] + O ?
Data returned: 1.35739

----------
# measurement-notes: wn = mass fraction of the nth substance listed
# measurement-setup: 308.15 K; 101 kPa; Liquid; Concentric cylinders viscometry; w1 = 0.15
viscosity reference
# unit: mPa·s | format: bare number

Solved cases (3 shown):
compound | measurement-name | unit-string | reported-result
OCCNCCO [diethanolamine] + O | viscosity | mPa·s | 1.174
CC(O)CN (centres undefined) [1-amino-2-propanol] + O | viscosity | mPa·s | 1.215
CC(O)CNCC(C)O (centres undefined) [N-(2-hydroxypropyl)-2-hydroxy-1-propanamine] + O | viscosity | mPa·s | 1.38

Next:
Data request: Any idea what viscosity was measured for CC(O)CN(CC(C)O)CC(C)O (centres undefined) [triisopropanolamine] + O ?
Data returned: 1.309

----------
viscosity reference
# measurement-notes: wn = mass fraction of the nth substance listed
# measurement-setup: 343.15 K; 101 kPa; Liquid; Concentric cylinders viscometry; w1 = 0.05
# unit: mPa·s | format: bare number

Solved cases (3 shown):
compound | unit-string | viscosity
CC(O)CN (centres undefined) [1-amino-2-propanol] + O | mPa·s | 0.5152
OCCNCCO [diethanolamine] + O | mPa·s | 0.5002
CC(O)CN(CC(C)O)CC(C)O (centres undefined) [triisopropanolamine] + O | mPa·s | 0.5064

Next:
Data request: Any idea what viscosity was measured for CC(O)CNCC(C)O (centres undefined) [N-(2-hydroxypropyl)-2-hydroxy-1-propanamine] + O ?
Data returned: 0.5267

----------
# measurement-notes: refractive index (Na D-line) (dimensionless); wn = mass fraction of the nth substance listed
# measurement-setup: 343.15 K; 101 kPa; Liquid; Standard Abbe refractometry; w1 = 0.05
measurement-name: refractive index
No unit in the answer, only the number.

Data request: Any idea what refractive index was measured for CC(O)CN (centres undefined) [1-amino-2-propanol] + O ?
Data returned: 1.33057

Data request: Any idea what refractive index was measured for OCCNCCO [diethanolamine] + O ?
Data returned: 1.33122

Data request: Any idea what refractive index was measured for CC(O)CN(CC(C)O)CC(C)O (centres undefined) [triisopropanolamine] + O ?
Data returned: 1.33265

Data request: Any idea what refractive index was measured for CC(O)CNCC(C)O (centres undefined) [N-(2-hydroxypropyl)-2-hydroxy-1-propanamine] + O ?
Data returned: 1.33224
